system: HOP-62 NSCLC; experiment: NCI-60 one-dose screen, 48 h; conditions: 10 µM unless noted
The panel holds about 83,000 compounds, 20% with a hit somewhere; the sample as a whole holds those more often. Calls of active or inactive are those of the source. The calls were made as follows: active = growth percent below 10; inactive = the rest.
Outcome codes: TRUE for active, FALSE for inactive

[[record]]
compound = "Cc1cc(N=C2NC(=O)CS2)n[nH]1"
class_label = "FALSE"

[[record]]
compound = "CC(C)CSc1nc(NCCc2c[nH]c3ccccc23)c(C#N)c(-c2ccc(Cl)cc2)n1"
class_label = "FALSE"

[[record]]
compound = "CC1(C)CC[C@]2(C(=O)Nc3ccc(Br)cc3)CC[C@]3(C)C(=CCC4[C@@]5(C)C[C@@H](O)[C@H](O)[C@@](C)(CO)C5CC[C@]43C)C2C1 (some centres not stated)"
class_label = "TRUE"

[[record]]
compound = "CC1=C(C(=O)c2ccccc2)C(c2ccc(-n3cncn3)cc2)n2c(nc3ccccc32)N1 (configuration not stated)"
class_label = "FALSE"

[[record]]
compound = "CC(C)c1ccc2c(N)c(C(=O)Nc3cccc(C(F)(F)F)c3)sc2n1"
class_label = "FALSE"

[[record]]
compound = "O=c1c2ccccc2nc(-c2ccccc2)n1/N=C/c1ccc2ccccc2c1"
class_label = "FALSE"

[[record]]
compound = "O=C(c1ccccc1)c1ccc2nc(-c3ccc(F)cc3)[nH]c2c1"
class_label = "FALSE"

[[record]]
compound = "COc1ccc2oc3c4[nH]c5ccccc5c4c4c(c3c2c1)C(=O)N(C(=O)OC(C)(C)C)C4=O"
class_label = "TRUE"

[[record]]
compound = "COc1ccc(C(=O)/C=C/c2ccc(OCc3ccc(F)cc3)c(OC)c2)cc1OC"
class_label = "FALSE"

[[record]]
compound = "O=C(/C=C/c1cccc(OCc2ccc(F)cc2)c1)c1nc2ccccc2[nH]1"
class_label = "FALSE"

[[record]]
compound = "COc1ccc(/C=C/c2n(Cc3ccc4ccccc4c3)c3ccccc3[n+]2Cc2ccc3ccccc3c2)cc1"
class_label = "TRUE"

[[record]]
compound = "C=C1CCC2C3(C)COC(c4ccc(F)cc4)OC3CCC2(C)C1C/C=C1/C(=O)OCC1O (configuration not stated)"
class_label = "TRUE"

[[record]]
compound = "C#CCOc1ccc(/C=N/Nc2nc(-c3ccc(F)cc3)cs2)cc1OC"
class_label = "FALSE"

[[record]]
compound = "NS(=O)(=O)c1ccc(N=Nc2c(O)n(CC(=O)Nc3ccccc3Cl)c3ccccc23)cc1"
class_label = "FALSE"

[[record]]
compound = "C=C1CCC2C3(C)COC(c4ccccc4F)OC3CCC2(C)C1CC(O)C1=CCOC1=O (configuration not stated)"
class_label = "FALSE"

[[record]]
compound = "COc1ccccc1/C=C/C(=O)c1ccc(OC)c(S(N)(=O)=O)c1"
class_label = "FALSE"

[[record]]
compound = "O=c1cc(-c2ccccc2)oc2cc(OCCCC[P+](c3ccccc3)(c3ccccc3)c3ccccc3)cc(O)c12"
class_label = "TRUE"

[[record]]
compound = "O=C(c1ccc(OCCN2CCOCC2)cc1)C1[C@H](c2ccc(Cl)cc2)[C@@H](c2ccccc2)NC12C(=O)Nc1ccc(Cl)cc12 (some centres not stated)"
class_label = "FALSE"

[[record]]
compound = "CCCCSc1nc(NCCc2c[nH]c3ccccc23)c(C#N)c(-c2ccc(F)cc2)n1"
class_label = "FALSE"

[[record]]
compound = "C=C1CCC2C3(C)COC(c4cccc(F)c4)OC3CCC2(C)C1C/C=C1/C(=O)OCC1O (configuration not stated)"
class_label = "FALSE"

[[record]]
compound = "COCOc1cc2oc(C(=O)N[C@@H](Cc3ccccc3)C(O)C(=O)NCc3ccccc3)c(C)c(=O)c2cc1OCOC (some centres not stated)"
class_label = "FALSE"

[[record]]
compound = "N#Cc1c(-c2cccc(Cl)c2Cl)cc(-c2ccc3ccccc3c2)[nH]c1=O"
class_label = "FALSE"

[[record]]
compound = "COc1ccc(/C=C/c2nc3ccccc3c(=O)n2CC(=O)Nc2ccc(OC)cc2)cc1"
class_label = "FALSE"

[[record]]
compound = "O=C(O)c1cccc(-c2ccc(/C=N/NC(=O)c3[nH]c4ccc(Br)cc4c3-c3ccccc3)o2)c1"
class_label = "FALSE"

[[record]]
compound = "Clc1cccc(N/N=C/c2c[nH]c3ccc(Br)cc23)n1"
class_label = "FALSE"

[[record]]
compound = "COc1ccc(CCC2c3c(cc4c(c3OC)OCO4)CCN2C)cc1 (configuration not stated)"
class_label = "TRUE"

[[record]]
compound = "N#Cc1ccc(/C=N/NC(=O)c2[nH]c3ccc(Br)cc3c2-c2ccccc2)o1"
class_label = "FALSE"

[[record]]
compound = "S=C(Nc1ccc(OCc2nc3ccccc3[nH]2)cc1)NC1CCCCC1"
class_label = "FALSE"

[[record]]
compound = "C=C1CC[C@@H]2[C@]3(C)COC(c4cn[nH]c4-c4ccc(Br)cc4)O[C@@H]3CC[C@@]2(C)[C@@H]1C/C=C1/C(=O)OCC1O (some centres not stated)"
class_label = "TRUE"

[[record]]
compound = "C=C1CCC2C3(C)COC(c4ccc(F)cc4)OC3CCC2(C)C1CC(O)C1=CCOC1=O (configuration not stated)"
class_label = "FALSE"

[[record]]
compound = "CN(C)c1nc(NCCNS(=O)(=O)c2ccc(C3=Nc4c(N)nc(N)nc4NC(c4ccc(F)cc4)C3)cc2)nc(Nc2ccc(F)cc2)n1 (configuration not stated)"
class_label = "FALSE"

[[record]]
compound = "N#Cc1ccc(C(=O)Nn2c(N)cc3ccccc3c2=O)cc1"
class_label = "FALSE"

[[record]]
compound = "CCCSc1nc(Nc2ccc(S(N)(=O)=O)cc2)c(C#N)c(-c2cc(OC)c(OC)c(OC)c2)n1"
class_label = "FALSE"

[[record]]
compound = "CN(C)CCCNC(=O)c1cc(NC(=O)c2cc(NC(=O)c3ccc(/C=C/c4ccccc4)cc3)cn2C)cn1C"
class_label = "FALSE"

[[record]]
compound = "CCN1C(=O)N(CC)C2NNC(Sc3c(C(=O)O)c4ccccc4n(C4CCCC4)c3=O)=NC21 (configuration not stated)"
class_label = "FALSE"

[[record]]
compound = "COc1cc2c3c(n(CCCN4CCC[C@@H]4CO)c(=O)c2cc1OC)-c1cc2c(cc1C3=O)OCO2"
class_label = "TRUE"

[[record]]
compound = "COc1ccc(NC(=O)Nc2ccc(OCc3ccc(F)cc3)cc2)cc1"
class_label = "FALSE"


====

tested on: DU-145 prostate; assay: NCI-60 one-dose screen, 48 h; settings: 10 µM unless noted
Compounds without any hit were thinned out: in the full panel of roughly 83,000, 20% have a hit. Activity calls are given as the source filed them. Rule for the calls: active = growth percent below 10; inactive = the rest.
Outcome codes: Y (active), N (inactive)

[[record]]
compound = "COc1ccc(-c2nc3ccc(C(=O)NN4C(=O)c5ccc([N+](=O)[O-])cc5C4=O)cc3[nH]2)cc1"
class_label = "N"

[[record]]
compound = "CCOC(=O)C1=C(N)N(c2ccccc2)C2=C(C(=O)CC(C)(C)C2)C1c1ccccc1Cl (stereo not drawn)"
class_label = "N"

[[record]]
compound = "O=C1/C(=C/C2=Cc3ccccc3OC2)SC(=S)N1c1ccccc1F"
class_label = "N"

[[record]]
compound = "Cc1cccc(Nc2nc3ccccc3nc2/C=C/c2ccc(F)cc2)c1"
class_label = "N"

[[record]]
compound = "O=C(NNc1nc2cc(F)ccc2n2c(CN3CCCCC3)ccc12)c1cnccn1"
class_label = "Y"

[[record]]
compound = "C=C1CCC2C3(C)COC(c4cccc(F)c4)OC3CCC2(C)C1C/C=C1/C(=O)OCC1O (stereo not drawn)"
class_label = "Y"

[[record]]
compound = "CCOC(=O)C1=C(N)N(c2ccccc2)C2=C(C(=O)CC(C)(C)C2)C1c1ccc([N+](=O)[O-])cc1 (stereo not drawn)"
class_label = "N"

[[record]]
compound = "Cc1ccc(C(=O)C(c2c[nH]c3ccccc23)c2c[nH]c3ccccc23)cc1"
class_label = "Y"

[[record]]
compound = "Cc1cc2nc3c4ccccc4n(CC4=NCCN4)c3nc2cc1C"
class_label = "Y"

[[record]]
compound = "O=c1[nH]c2ccccc2cc1CSc1cccc(Nc2nccc(-c3ccc4ccccc4c3)n2)c1"
class_label = "N"

[[record]]
compound = "O=C1NC(=O)/C(=C/c2ccccc2OCc2cc3ccccc3nc2Cl)S1"
class_label = "N"

[[record]]
compound = "N/C(=N\\c1nc2ccccc2s1)NC(=O)NCCCCCCO"
class_label = "N"

[[record]]
compound = "C=C1CC[C@@H]2[C@]3(C)COC(c4cn[nH]c4-c4ccc(C)cc4)O[C@@H]3CC[C@@]2(C)[C@@H]1C/C=C1/C(=O)OCC1O (stereo partly drawn)"
class_label = "N"

[[record]]
compound = "CC1[C@H]2[C@H](C[C@H]3[C@@H]4CC=C5c6sc(Nc7ccccc7F)nc6CC[C@]5(C)[C@H]4CC[C@@]32C)O[C@]12CC[C@@H](C)CO2 (stereo partly drawn)"
class_label = "Y"

[[record]]
compound = "CN(C)CCn1c2ccccc2c2nc3cc(C(F)(F)F)ccc3nc21"
class_label = "N"

[[record]]
compound = "Cc1c(C(=O)NNC(=O)c2ccc(Cl)cc2)nnn1-c1ccc(Br)cc1"
class_label = "N"

[[record]]
compound = "COc1ccc(C2=NN(C(C)=O)C(c3ccc(OCc4ccc(Cl)cc4)c(OC)c3)C2)cc1OC (stereo not drawn)"
class_label = "N"

[[record]]
compound = "CC1(C)CC[C@]2(C(=O)O)CC[C@]3(C)C(=CCC4[C@@]5(C)C[C@@H](O)[C@@H]6OC(c7ccccc7Br)OC[C@@]6(C)C5CC[C@]43C)C2C1 (stereo partly drawn)"
class_label = "N"

